tested on: Staphylococci Oxford; experiment: Antibacterial activity of alkylidene-penems (MIC); type: cell-based; details: compound alone
Give measured MIC for each item. Keep answers brief.
One number for each entry, in µg/mL.

>>> df
                                   compound  experimental_endpoint  reported_value
0  O=C(O)C1=CSC2/C(=C/c3ccoc3)C(=O)N12 (racemic) [Example 12b]                    MIC             100
1  CCSC1=C(C(=O)O)N2C(=O)/C(=C/c3ccco3)C2S1 (racemic) [Example 2b]                    MIC             5.0
2  O=C(O)C1=CSC2/C(=C\c3ccc(Br)o3)C(=O)N12 (racemic) [Example 11b]                    MIC              50

Please turn your attention to the following entry.
Qu. // query MIC value for entry O=C(O)C1=CSC2/C(=C\c3ccco3)C(=O)N12 (racemic) [Example 1b]
Ans. 16.0
